- System: mu opiate receptor (MOR)
- EXPERIMENT_NOTES: MOR agonist activity using [35S]GTPγS binding assay in striatal membranes
- Format: biochemical
- CONDITION_SET: 1 μM compound + BFNA relative to DAMGO + BFNA

# MOLECULE, ASSAY_TARGET, UNIT_SYMBOL, % DAMGO + BFNA
data = [
    ("CC1CCC(C(C)C)C(OCC(O)CN2CCN(CCc3ccccc3)CC2)C1 (centres unmarked)", "mu opiate receptor (MOR)", "%", 194.2),
    ("CC1CCC(C(C)C)C(OCC(O)CN2CCCCCC2)C1 (centres unmarked)", "mu opiate receptor (MOR)", "%", 131.1),
    ("OC(COc1cccc(C(F)(F)F)c1)CN1CCc2ccccc2C1 (centres unmarked)", "mu opiate receptor (MOR)", "%", 348.9),
    ("CC1CCC(C(C)C)C(OCC(O)CN2CCOCC2)C1 (centres unmarked)", "mu opiate receptor (MOR)", "%", 130.9),
    ("CC1CCC(C)C(OCC(O)CN2CC(C)OC(C)C2)C1 (centres unmarked)", "mu opiate receptor (MOR)", "%", 53.7),
]

###

- Tested on: mu opiate receptor (MOR)
- EXPERIMENT_NOTES: MOR agonist activity using [35S]GTPγS binding assay in striatal membranes
- Assay type: biochemical
- CONDITION_SET: Series C-1; 1 μM compound; [35S]GTPγS binding to Gαo, striatal membranes
Below is a list of entries, each paired with its recorded Concentration of FLNA-Binding Compound as Agonist 1 μM value.
MEASURE_NAME: Concentration of FLNA-Binding Compound as Agonist 1 μM

# COMPOUND, ASSAY_TARGET, VALUE_OBSERVED
records = [
    ("CC(=O)c1ccc(S(=O)(=O)N2CCC3(CC2)NC(=O)CN3S(=O)(=O)c2ccc(C(C)=O)cc2)cc1", "mu opiate receptor (MOR)", "349.6%"),
    ("Cc1cccc(S(=O)(=O)N2CCC3(CC2)OCCN3S(=O)(=O)c2cccc(C)c2)c1", "mu opiate receptor (MOR)", "153.5%"),
    ("O=C(OCc1ccccc1)c1ccc(S(=O)(=O)N2CCC3(CC2)OCCN3S(=O)(=O)c2ccc(C(=O)OCc3ccccc3)cc2)cc1", "mu opiate receptor (MOR)", "260.9%"),
    ("CC(=O)c1ccc(C(=O)N2CCC3(CC2)OCCN3S(=O)(=O)c2ccc(C(C)=O)cc2)cc1", "mu opiate receptor (MOR)", "162.8%"),
    ("O=S(=O)(c1ccc(Oc2ccccc2)cc1)N1CCC2(CC1)OCCN2S(=O)(=O)c1ccc(Oc2ccccc2)cc1 [Compound C0149M]", "mu opiate receptor (MOR)", "406.7%"),
    ("O=S(=O)(c1cccc(OC(F)(F)F)c1)N1CCC2(CC1)OCCN2S(=O)(=O)c1cccc(OC(F)(F)F)c1", "mu opiate receptor (MOR)", "227.2%"),
    ("N#Cc1ccccc1S(=O)(=O)N1CCC2(CC1)OCCN2S(=O)(=O)c1ccccc1C#N", "mu opiate receptor (MOR)", "228.4%"),
]

###

- Test system: mu opiate receptor (MOR)
- EXPERIMENT_NOTES: MOR agonist activity using [35S]GTPγS binding assay in striatal membranes
- Format: biochemical
- CONDITION_SET: Series C-1; 0.1 μM compound, relative to DAMGO

# MOLECULE, % DAMGO (0.1 μM)
measured = [
    ("COC(=O)c1ccc(S(=O)(=O)N2CCC3(CC2)OCCN3S(=O)(=O)c2ccc(C(=O)OC)cc2)cc1 [Compound C0028]", "55.6%"),
    ("CC(=O)Nc1ccc(S(=O)(=O)N2CCC3(CC2)OCCN3S(=O)(=O)c2ccc(NC(C)=O)cc2)cc1 [Compound C0013]", "91.0%"),
    ("COc1ccc(NC(=O)N2CCC3(CC2)OCCN3C(=O)Nc2ccc(OC)cc2)cc1 [Compound C0151M]", "201.6%"),
    ("O=S(=O)(c1ccc(Cl)cc1)N1CCC2(CC1)OCCN2S(=O)(=O)c1ccc(Cl)cc1 [Compound C0067]", "82.9%"),
]
